Test system: HBV
protocol_notes: Anti-viral assay in HepG2.2.15 cells: HBV inhibitory activity (HBV DNA in culture medium by q-PCR)
Type: cell-based
test_settings: Hepatitis B virus, HepG2.2.15, 144 h, HepG2.2.15 cells, 6 days treatment, HBV DNA in culture medium by q-PCR, highest concentration 10 uM; read-out: EC50
Procedure: Example 2: Anti-Viral Assay in HepG2.2.15 Cells 1.1. […] The HBV DAN change in the cell culture medium induced by the compounds is measured by q-PCR method. Briefly, the HBV DNA in the culture medium is extracted using QIAamp 96 DNA Blood Kit according to the manual and then quantified by q-PCR using the primers and probe in the table below. EC50 and CC50 values are calculated by the GRAPHPAD PRISM software.
Param label: returns Condition met when EC50 < 20 nM, returns Condition not met otherwise, including exact equality.

[
  {
    "compound": "CCOC(=O)C1=C(C2CCN(c3nccc(C(=O)O)c3F)CC2)NC(c2nccs2)=NC1c1ccc(F)c(F)c1Cl (single isomer, unassigned) [II-40-B]",
    "answer_label": "Condition met"
  },
  {
    "compound": "COC(=O)C1=C(C2CCN(c3ncc(C(=O)O)s3)CC2)NC(c2nccs2)=NC1c1cccc(F)c1Br (single isomer, unassigned) [II-83-B]",
    "answer_label": "Condition met"
  },
  {
    "compound": "CCOC(=O)C1=C([C@H]2CC[C@H](c3ccc(C(=O)O)cc3)CC2)NC(c2nccs2)=NC1c1ccc(F)c(F)c1Cl (single isomer, unassigned) [Compound I-44-A]",
    "answer_label": "Condition met"
  },
  {
    "compound": "CCOC(=O)C1=C(C2CCN(c3ncc(C(=O)O)cc3F)CC2)NC(c2nccs2)=NC1c1ccc(F)c(F)c1Cl (single isomer, unassigned) [II-45-B]",
    "answer_label": "Condition met"
  },
  {
    "compound": "CCOC(=O)C1=C([C@H]2CC[C@H](c3nc(CCC(=O)O)co3)CC2)NC(c2nccs2)=NC1c1ccc(F)c(F)c1Cl (single isomer, unassigned) [Compound I-24-A]",
    "answer_label": "Condition met"
  },
  {
    "compound": "COC(=O)C1=C(C2CCN(c3nc(C(F)(F)F)c(C(=O)O)s3)CC2)NC(c2nccs2)=NC1c1ccc(F)c(F)c1Cl (single isomer, unassigned) [II-31-B]",
    "answer_label": "Condition not met"
  },
  {
    "compound": "CCOC(=O)C1=C(C2CCN(c3ncc(C)c(C(=O)O)n3)CC2)NC(c2nccs2)=NC1c1cccc(F)c1Cl (single isomer, unassigned) [II-22-B]",
    "answer_label": "Condition met"
  },
  {
    "compound": "CCOC(=O)C1=C([C@H]2CC[C@H](c3ncc(C(=O)O)o3)CC2)NC(c2nccs2)=NC1c1ccc(F)c(F)c1Cl (single isomer, unassigned) [Compound I-26-B]",
    "answer_label": "Condition not met"
  },
  {
    "compound": "CCOC(=O)C1=C([C@H]2CC[C@H](c3nc(C(=O)O)co3)CC2)NC(c2nccs2)=NC1c1ccc(F)cc1C (single isomer, unassigned) [Compound I-12-C]",
    "answer_label": "Condition not met"
  },
  {
    "compound": "CCOC(=O)C1=C(C2CCN(c3ccc(C(=O)O)nc3Cl)CC2)NC(c2nccs2)=NC1c1ccc(F)c(F)c1Cl (single isomer, unassigned) [II-42-B]",
    "answer_label": "Condition not met"
  },
  {
    "compound": "CCOC(=O)C1=C([C@H]2CC[C@H](c3ncc(C(=O)O)cn3)CC2)NC(c2nccs2)=NC1c1ccc(F)c(F)c1Cl (single isomer, unassigned) [Compound I-40-A]",
    "answer_label": "Condition met"
  }
]

###

Test system: HBV
protocol_notes: Anti-viral assay in HepG2.2.15 cells: HBV inhibitory activity (HBV DNA in culture medium by q-PCR)
Type: cell-based
test_settings: Hepatitis B virus, HepG2.2.15, 144 h, HepG2.2.15 cells, 6 days treatment, HBV DNA in culture medium by q-PCR, highest concentration 10 uM; read-out: EC50
pEC50: −log10 of the molar value.

[
  {
    "molecule": "CCOC(=O)C1=C(C2CCN(c3ncc(Cl)c(C(=O)O)n3)CC2)NC(c2nccs2)=NC1c1ccc(F)c(F)c1Cl (single isomer, unassigned)",
    "pEC50": 8.04
  },
  {
    "molecule": "COC(=O)C1=C([C@H]2CC[C@H](c3nc(C(=O)O)co3)CC2)NC(c2nccs2)=NC1c1cccc(F)c1C (single isomer, unassigned)",
    "pEC50": 6.85
  },
  {
    "molecule": "COC(=O)C1=C([C@H]2CC[C@H](c3nc(C(=O)O)co3)CC2)NC(c2nccs2)=NC1c1ccc(F)cc1C (single isomer, unassigned)",
    "pEC50": 7.14
  },
  {
    "molecule": "COC(=O)C1=C(C2CCN(c3ncc(C(=O)O)s3)CC2)NC(c2nccs2)=NC1c1ccc(F)cc1Cl (single isomer, unassigned)",
    "pEC50": 8.19
  },
  {
    "molecule": "CCOC(=O)C1=C(C2CCN(c3cc(C(=O)O)cc(C(F)(F)F)n3)CC2)NC(c2nccs2)=NC1c1ccc(F)c(F)c1Cl (single isomer, unassigned)",
    "pEC50": 7.09
  },
  {
    "molecule": "CCOC(=O)Cc1coc([C@H]2CC[C@H](C3=C(C(=O)OCC)C(c4ccc(F)c(F)c4Cl)N=C(c4nccs4)N3)CC2)n1 (single isomer, unassigned)",
    "pEC50": 7.64
  },
  {
    "molecule": "COC(=O)C1=C([C@H]2CC[C@H](c3nc(CC(=O)O)co3)CC2)NC(c2nccs2)=NC1c1cccc(F)c1Br (single isomer, unassigned)",
    "pEC50": 7.44
  },
  {
    "molecule": "CCOC(=O)C1=C(C2CCN(c3cc(C)c(C(=O)O)nn3)CC2)NC(c2nccs2)=NC1c1ccc(F)c(F)c1Cl (single isomer, unassigned)",
    "pEC50": 7.00
  },
  {
    "molecule": "COC(=O)C1=C(C2CCN(c3ncc(C)c(C(=O)O)n3)CC2)NC(c2nccs2)=NC1c1ccc(F)cc1Cl (single isomer, unassigned)",
    "pEC50": 8.09
  },
  {
    "molecule": "COC(=O)C1=C(C2CN(C(=O)c3cnoc3C)C2)NC(c2nccs2)=NC1c1ccc(F)cc1Cl (single isomer, unassigned)",
    "pEC50": 5.69
  },
  {
    "molecule": "CCOC(=O)C1=C(C2CCN(c3ncc(C(=O)O)cn3)CC2)NC(c2nccs2)=NC1c1ccc(F)c(F)c1Cl (single isomer, unassigned)",
    "pEC50": 8.18
  },
  {
    "molecule": "COC(=O)C1=C(C2CN(C(=O)c3ccccc3)C2)NC(c2nccs2)=NC1c1ccc(F)cc1Cl (single isomer, unassigned)",
    "pEC50": 5.40
  }
]

###

Tested on: HBV
protocol_notes: Anti-viral assay in HepG2.2.15 cells: HBV inhibitory activity (HBV DNA in culture medium by q-PCR)
Format: cell-based
test_settings: Hepatitis B virus, HepG2.2.15, 144 h, HepG2.2.15 cells, 6 days treatment, HBV DNA in culture medium by q-PCR, highest concentration 10 uM; read-out: EC50

[
  {
    "compound": "COC(=O)C1=C([C@H]2CC[C@H](c3nc(C(=O)O)co3)CC2)NC(c2nccs2)=NC1c1ccc(F)c(F)c1Cl (single isomer, unassigned)",
    "measurement_target": "HBV",
    "reading_unit": "nM",
    "EC50": 7.5
  },
  {
    "compound": "CCOC(=O)C1=C(C2CCN(c3ncc(C(=O)O)o3)CC2)NC(c2nccs2)=NC1c1ccc(F)c(F)c1Cl (single isomer, unassigned)",
    "measurement_target": "HBV",
    "reading_unit": "nM",
    "EC50": 26
  },
  {
    "compound": "CCOC(=O)C1=C(C2CCN(c3cc(C(=O)O)ccn3)CC2)NC(c2nccs2)=NC1c1ccc(F)c(F)c1Cl (single isomer, unassigned)",
    "measurement_target": "HBV",
    "reading_unit": "nM",
    "EC50": 5.2
  },
  {
    "compound": "CCOC(=O)C1=C(C2CCN(c3cnc(C(=O)O)c(C)n3)CC2)NC(c2nccs2)=NC1c1ccc(F)c(F)c1Cl (single isomer, unassigned)",
    "measurement_target": "HBV",
    "reading_unit": "nM",
    "EC50": 50
  },
  {
    "compound": "CCOC(=O)C1=C([C@H]2CC[C@H](Cc3nc(C(=O)O)co3)CC2)NC(c2nccs2)=NC1c1ccc(F)c(F)c1Cl (single isomer, unassigned)",
    "measurement_target": "HBV",
    "reading_unit": "nM",
    "EC50": 66
  },
  {
    "compound": "COC(=O)C1=C(C2CCN(c3ncc(C(=O)O)c(C)n3)CC2)NC(c2nccs2)=NC1c1ccc(F)cc1Cl (single isomer, unassigned)",
    "measurement_target": "HBV",
    "reading_unit": "nM",
    "EC50": 6.9
  }
]
